Tested on: T47D
assay-info: NCI tumour cell line growth inhibition, 48 h
The source made the active and inactive calls. Rule as the data show it: active = GI50 up to about 1.1 µM and inactive = higher.
parameter: GI50

# molecule, parameter, measured-result
data = [
    ("CC(C)C1=CC(=O)[C@@](C)(C2[C@H](O)C[C@@]3(C)[C@@H]4CC=C5[C@@H](CC[C@@H](OC6OCC(O)C(O)C6OC6OC(C)C(O)C(O)C6O)C5(C)C)[C@]4(C)C(=O)C[C@]23C)O1 (some centres undefined)", "GI50", "> 100 µM (inactive)"),
    ("S=C1/C(=N/c2ccccc2)N(c2ccccc2)/C(=N\\c2ccccn2)N1c1ccccc1", "GI50", "15 µM (inactive)"),
    ("O=C(OC(=C(c1ccccc1)c1ccccc1)N1CCCC1=S)C(c1ccccc1)c1ccccc1", "GI50", "3.58 µM (inactive)"),
    ("CN(C(=O)C1=CCCCCC1)c1ccccc1I", "GI50", "23.7 µM (inactive)"),
    ("COc1ccc2nc(-c3ccc(O)cc3)cn2c1", "GI50", "89.9 µM (inactive)"),
    ("O=C(CSCC(=O)N/N=C/c1ccccc1)N/N=C\\c1ccccc1", "GI50", "77.6 µM (inactive)"),
    ("FC1CCN(C2(c3cccs3)CCCCC2)CC1", "GI50", "> 100 µM (inactive)"),
    ("COc1ccc(/C=C(\\C#N)c2nc(-c3cc4ccccc4oc3=O)cs2)cc1", "GI50", "52.5 µM (inactive)"),
    ("COc1cc(N(CCC#N)CCC#N)ccc1C(/N=N/c1ccccc1C)=N\\NC(=O)c1ccc(C)cc1", "GI50", "38.2 µM (inactive)"),
]

----------
System: MDA-N
assay-info: NCI tumour cell line growth inhibition, 48 h
Active and inactive are the calls of the source. Rule as the data show it: active = GI50 up to about 1.1 µM and inactive = higher. *1 amine or outer side, *2 acyl side, *3 side chain or, on linkers, in order; H or OH if unused. Where a SMILES comes first, the peptide text is derived from it. Bridges are numbered along the chain shown (N, C = ends). Roman numbers before positions name the chains, in order. [ ]: non-standard residue; d: D form. Actinocin(1to9) = Cc1c2oc3c(C)ccc(C(=O)[*:2])c3nc-2c(C(=O)[*:1])c(N)c1=O; NMeV = CN[CH](C(=O)O)C(C)C; Sar = CNCC(=O)O
parameter: GI50

# compound, parameter, measured-result
measured = [
    ("C=CC(=O)N1C/C(=C\\c2ccc([N+](=O)[O-])cc2)C(=O)/C(=C/c2ccc([N+](=O)[O-])cc2)C1", "GI50", "0.169 µM (active)"),
    ("CN(CCN(C)CCN(C)C(=O)Cc1ccc(Cl)c(Cl)c1)CCN1CCCC1", "GI50", "6.85 µM (inactive)"),
    ("CC(=O)OCCCCn1cnc2c(Cl)nc(Nc3ccccc3)nc21", "GI50", "> 100 µM (inactive)"),
    ("CCOC(=O)/C(=C\\c1ccc(F)cc1)C(C)=O", "GI50", "37.8 µM (inactive)"),
    ("O=C1NC(=O)/C(=C/c2ccc(S(=O)(=O)N/N=C\\C(O)C(O)C(O)C(O)CO)cc2)N1 (stereo not drawn)", "GI50", "> 100 µM (inactive)"),
    ("CCC(=O)C1(N2CCOCC2)CCN(CCCC(=O)c2ccc(F)cc2)CC1", "GI50", "> 100 µM (inactive)"),
    ("COc1ccc(CC2NC(=O)C(NC(=O)c3c4nc5c(C(=O)NC6C(=O)NC(Cc7ccc(OC)cc7)C(=O)N7CCCC7C(=O)N(C)CC(=O)N(C)C(C(C)C)C(=O)OC6C)ccc(C)c5oc-4c(C)c(=O)c3N)C(C)OC(=O)C(C(C)C)N(C)C(=O)CN(C)C(=O)C3CCCN3C2=O)cc1 (stereo not drawn) (I: TY(Me)P[Sar][NMeV] / II: TY(Me)P[Sar][NMeV]; ester I:1-I:C, II:1-II:C; linker I:N-II:N via Actinocin(1to9); configuration not given here)", "GI50", "< 0.001 µM (active)"),
    ("Cc1cccc(/C=N/NC(=S)N(C)CCc2ccccn2)n1", "GI50", "0.473 µM (active)"),
]

----------
Quick reference: GI50 of the listed items.
System: HCT-15

# compound, value-relation-sign, GI50 (µM)
measured = [
    ("C[C@]12CC[C@H](O[C@@H]3O[C@H](CO[C@@H]4O[C@H](CO)[C@@H](O)[C@H](O)[C@H]4O)[C@@H](O)[C@H](O)[C@H]3O)C[C@@H]1CC[C@@H]1[C@@H]2CC[C@]2(C)[C@@H](C3=CC(=O)OC3)CC[C@]12O [UZARIN]", "=", 18.2),
    ("Cc1cc(S(=O)(=O)Nc2nncn2-c2ccc(Cl)cc2)c(S)cc1Cl", ">", 10),
    ("O=C1c2n[nH]nc2C(=O)c2n[nH]nc21", ">", 100),
    ("COc1ccc(-c2cc(=O)c3c(OC)c(O)c(OC)cc3o2)cc1", "=", 35),
    ("Cc1ccc(Nc2n[nH]c(NS(=O)(=O)c3cc(C)c(Cl)cc3S)n2)cc1", ">", 100),
    ("COc1cccc(-c2[nH]c3cc4c(cc3c(=O)c2C(=O)O)OCO4)c1", "=", 28.4),
    ("NC1CC(=O)c2cscc21 (centres undefined)", "=", 25.4),
    ("Cc1ccc2c(O)cc(-c3ccccc3)nc2n1", "=", 0.0352),
    ("CC(C)N(C(=O)C12C3C4C5C3C1(C#N)C5C42)C(C)C (centres undefined)", ">", 100),
]

----------
System: SNB-75
assay-info: NCI tumour cell line growth inhibition, 48 h
Active and inactive are the calls of the source. No stated cut-off is given here; in the data, active = GI50 up to about 1.1 µM and inactive = higher. *1 amine or outer side, *2 acyl side, *3 side chain or, on linkers, in order; H or OH if unused. Where a SMILES comes first, the peptide text is derived from it. Bridges are numbered along the chain shown (N, C = ends). Roman numbers before positions name the chains, in order. [ ]: non-standard residue; d: D form. Actinocin(1to9) = Cc1c2oc3c(C)ccc(C(=O)[*:2])c3nc-2c(C(=O)[*:1])c(N)c1=O; NMeV = CN[CH](C(=O)O)C(C)C; Sar = CNCC(=O)O
Catalogue of GI50 readings, one per entry.

# compound, GI50
rows = [
    ("CCOP1(=O)C=C(C)C(=C(Cl)Cl)C(C)=C1 (configuration not stated)", "3.33 µM (inactive)"),
    ("COc1ccc(CC2NC(=O)C(NC(=O)c3c4nc5c(C(=O)NC6C(=O)NC(Cc7ccc(OC)cc7)C(=O)N7CCCC7C(=O)N(C)CC(=O)N(C)C(C(C)C)C(=O)OC6C)ccc(C)c5oc-4c(C)c(=O)c3N)C(C)OC(=O)C(C(C)C)N(C)C(=O)CN(C)C(=O)C3CCCN3C2=O)cc1 (configuration not stated) (I: TY(Me)P[Sar][NMeV] / II: TY(Me)P[Sar][NMeV]; ester I:1-I:C, II:1-II:C; linker I:N-II:N via Actinocin(1to9); configuration not given here)", "0.00109 µM (active)"),
    ("COc1cc([C@@H]2c3cc4c(cc3[C@@H](NCc3ccccc3)C3COC(=O)[C@@H]32)OCO4)cc(OC)c1O (some centres not stated)", "6.21 µM (inactive)"),
    ("CCOCN1COCN/C1=N/C#N", "> 100 µM (inactive)"),
    ("O=S1(=O)CCN(c2ccccc2CC(c2c[nH]c3ccccc23)c2c[nH]c3ccccc23)CC1", "5.02 µM (inactive)"),
    ("C/C(CC(=O)Nc1ccccc1[N+](=O)[O-])=N\\NC(N)=O", "> 100 µM (inactive)"),
    ("CC1(C)OCC[C@@H]1[Si](C)(C)C", "52.1 µM (inactive)"),
    ("CCOC(=O)c1nc2ccc(C(F)(F)F)cc2nc1NCc1ccc(Cl)c(Cl)c1", "14 µM (inactive)"),
    ("COc1ccc(C(=O)O)c(Cc2cccc3ccccc23)c1", "> 100 µM (inactive)"),
    ("O=C1OC[C@@H]2Cc3c([nH]c4ccccc34)[C@@H](c3ccc(O)cc3)N12", "17 µM (inactive)"),
    ("C[C@@H]1O[C@]2(O)[C@@H]3CCCN3S(=O)(=O)CCN2C1=O", "> 100 µM (inactive)"),
    ("C=C(Br)N(CC)CC", "> 100 µM (inactive)"),
    ("Fc1cccc(CSc2ncnc3c2ncn3C2CCCS2)c1 (configuration not stated)", "17.6 µM (inactive)"),
    ("N#Cc1nn(-c2ccc(Cl)cc2)c(=N)c2c(N)n3nc(-c4ccccc4)cc3nc12", "1 µM (active)"),
    ("C=C(Nc1ccc(OC)cc1OC)C(=O)Cc1cccc[n+]1[O-]", "> 100 µM (inactive)"),
    ("CC(NC(=O)c1ccc(OP(=O)(OCC2=CC(=O)c3ccccc3C2=O)N(C)CCCCCl)cc1)c1ccc(OCC2CCCCC2)c(C(N)=O)c1 (configuration not stated)", "0.0122 µM (active)"),
    ("COC1=C(C(c2cc(OC)c(OC)c(OC)c2)c2cc3c(cc2OC)OCO3)C(=O)OC1 (configuration not stated)", "> 37.9 µM (inactive)"),
]
